Assignment: determine reported TGI for the given molecules.
test system: MDA-MB-435; test: NCI tumour cell line growth inhibition, 48 h
Answers are plain numbers, in µM.

Sample records with TGI:
>  <molecule>
COC(=O)c1ccccc1CC1Cc2ccc3c(c2C1)CCC3 (stereo not given)

>  <TGI (µM)>
57.9

$$$$
>  <molecule>
O=C1c2cc3c(cc2-c2c1c1ccc(Cl)cc1c(=O)n2CCCNCCO)OCO3

>  <TGI (µM)>
2.49

$$$$
>  <molecule>
O=C1/C(=C/c2ccccc2)CN(C(=O)c2cccnc2)C/C1=C\c1ccccc1

>  <TGI (µM)>
2.15

$$$$

Let us examine a further case.
Form field: reported TGI of "O=C1C=C(Sc2ccccc2)c2nccc3c2c1nc1ccccc13"
31.2

----------
system: A549 NSCLC; experiment: NCI tumour cell line growth inhibition, 48 h
Assignment: determine reported TGI for the given molecules.

>  <molecule>
Nc1c(Br)cc(Br)c2c1[nH]c(=O)c1ccccc12

>  <parameter>
TGI

>  <measured result>
> 100 µM

$$$$

Each molecule below has a reported value. Please supply its TGI.
1. O=C1NC(=O)C2C(=O)NC(=O)C1C2(c1ccccc1)c1cc[nH]c1 (stereo not given)
2. O/C(=C\c1nc2ccccc2nc1/C=C(\O)c1ccc(Cl)cc1)c1ccccc1
3. N#CC(C(=O)CCC(=O)C(C#N)c1ccccc1)c1ccccc1 (stereo not given)
4. COc1ccccc1CCN=C1NC(=O)/C(=C/c2ccc3ncccc3c2)S1
5. O=C(CC(C(=O)c1ccco1)c1ccsc1)c1ccco1 (stereo not given)

1: > 100 µM; 2: > 100 µM; 3: > 100 µM; 4: > 25 µM; 5: > 100 µM

Each molecule below has a reported value. Please supply its TGI.
1. COC(=O)C1=C(C(=O)ON)C2C=CC1(C(Cc1ccccc1)Nc1ccccc1)O2 (stereo not given)
2. O=[N+]([O-])c1nccn1CC(O)CN1CC1 (stereo not given)
3. CC(C)CC1C(=O)NCCC(NC(=O)C(N)Cc2ccc(O)cc2)C(=O)NC(Cc2ccccc2)C(=O)NC(Cc2ccccc2)NC1=O (stereo not given)
4. CCN=C(NNc1ccc([N+](=O)[O-])cc1)P(=O)(OC(C)C)OC(C)C

1. 29.4 µM
2. > 100 µM
3. > 100 µM
4. > 100 µM

----------
system: NCI-H522 lung; test: NCI tumour cell line growth inhibition, 48 h
parameter: GI50

Sample records with GI50:
>  <compound>
O=C(/C=C/c1cccnc1)NCCCCC1CCCN(C(=O)c2ccccc2)C1 (centres undefined)

>  <GI50>
< 10 nM

$$$$
>  <compound>
O=C(CN1CCN(CCCOc2c(-c3ccccc3)oc3ccccc3c2=O)CC1)Nc1ccc(Cl)cc1C(=O)c1ccccc1Cl

>  <GI50>
16600 nM

$$$$

Each compound below has a reported value. Please supply its GI50.
1. O=C1CCCCCCCC/C=C\CC(c2ccco2)O1 (centres undefined)
2. O=C1c2cc3c(cc2-c2c1c1ccc(Cl)cc1c(=O)n2CCCNCCO)OCO3
3. Cn1c(/C=C(\C#N)c2ccccc2)nc2c(N3CCOCC3)nc(Cl)nc21
4. COC(=O)C1=C(C(=O)ON)C2C=CC1(C(Cc1ccccc1)Nc1ccccc1)O2 (centres undefined)
5. CC[C@H](Nc1nc(NCc2cnc(C)cc2C)c2ncn(C(C)C)c2n1)[C@@H](C)O
6. Cc1c(-c2c(-c3ccc(F)o3)sc3ncnc(O[C@H](Cc4ccccc4OCc4ccnn4CC(F)(F)F)C(=O)O)c23)ccc(OCCN2CCN(C)CC2)c1Cl
7. COc1ccc(/C=C/C(=O)c2ccc(SC)cc2)cc1OC

1: 18100 nM; 2: 37.2 nM; 3: 740 nM; 4: 1450 nM; 5: 262 nM; 6: 148 nM; 7: 5000 nM

----------
Assignment: determine reported TGI for the given compounds.
tested on: UACC-257 melanoma; test: NCI tumour cell line growth inhibition, 48 h

Sample records with TGI:
>  <compound>
c1cc(Sc2nc(Sc3ccncc3)nc(Sc3ccncc3)n2)ccn1

>  <measured result>
> 100 µM

$$$$
>  <compound>
CCN1CCN(c2ccc(Nc3ccnc4ccc5c(nnn5C)c34)cc2)CC1

>  <measured result>
26.1 µM

$$$$
>  <compound>
OC1(c2ccccc2)CC2CCC(C1)N2CCCC1(c2ccc(F)cc2)OCCO1 (stereo not given)

>  <measured result>
73.5 µM

$$$$
>  <compound>
O=c1cc2ccccc2nn1Cc1cccc(Cl)c1

>  <measured result>
> 100 µM

$$$$
>  <compound>
COc1cc(C)c(Cl)cc1C1=NN(c2ccc(S(N)(=O)=O)cc2)C(/C=C/c2ccccc2)C1 (stereo not given)

>  <measured result>
20.5 µM

$$$$

Each compound below has a reported value. Please supply its TGI.
1. Cc1c(C)c2c(c(N)c1C#N)C(=O)N(Nc1ccccc1)C2=O
2. O/C(=C\c1nc2ccccc2nc1/C=C(\O)c1ccc(Cl)cc1)c1ccccc1
3. NC(=S)N/N=C(\Cc1nc2ccc(Cl)cc2[nH]c1=O)C(=O)Nc1ccc(Cl)cc1
4. Cn1nc2ccc3nccc(N4CCN(CCO)CC4)c3c2n1
5. O=C(CNc1cccc([N+](=O)[O-])c1)Nn1c(-c2ccccc2)nc2ccccc2c1=O

1. > 100 µM
2. > 100 µM
3. > 100 µM
4. > 100 µM
5. 11.8 µM

----------
Assignment: determine reported TGI for the given compounds.
tested on: NCI-H522 lung; experiment: NCI tumour cell line growth inhibition, 48 h
Numbers only, in µM.

Sample records with TGI:
>  <compound>
O=[N+]([O-])c1nccn1CC(O)CN1CC1 (configuration not stated)

>  <parameter>
TGI

>  <unit of measure>
µM

>  <measured result>
50.9

$$$$
>  <compound>
CN(CCCCN1CCCC1)CCCN(C)C(=O)Cc1ccc(Cl)c(Cl)c1

>  <parameter>
TGI

>  <unit of measure>
µM

>  <measured result>
27.9

$$$$
>  <compound>
CCCCCCCCCc1cc(-c2ccc(C=O)s2)sc1-c1ccc(C=O)s1

>  <parameter>
TGI

>  <unit of measure>
µM

>  <measured result>
45.6

$$$$
>  <compound>
NNC(=O)c1ccccc1NC(=O)/C(=C/c1ccccc1O)NC(=O)c1ccccc1

>  <parameter>
TGI

>  <unit of measure>
µM

>  <measured result>
47.4

$$$$
>  <compound>
COc1cc2c3c(n(CCCN)c(=O)c2cc1OC)-c1cc2c(cc1/C3=C\CCN)OCO2

>  <parameter>
TGI

>  <unit of measure>
µM

>  <measured result>
3.08

$$$$

Each compound below has a reported value. Please supply its TGI.
1. CC(C)c1ccc(C2C3=C(N=C4SCC(=O)N42)C(=O)c2ccccc23)cc1 (configuration not stated)
2. COc1ccccc1CCN=C1NC(=O)/C(=C/c2ccc3ncccc3c2)S1
3. O=c1c2ccccc2n(C[C@H]2CO2)c2ccccc12

1: 98.7; 2: 7.54; 3: 3.74

----------
Assignment: determine reported TGI for the given compounds.
tested on: NCI-H226 lung; test: NCI tumour cell line growth inhibition, 48 h

>  <compound>
CN(C(=O)C12C3C4C1C1C4(C(=O)C45C6C7C4C4C5C6C74C)C3C12C)C(C)(C)C (centres undefined)

>  <parameter>
TGI

>  <measured result>
> 100 µM

$$$$
>  <compound>
CC1=C2C[C@H]3[C@@H](CC[C@@H]4CC(NS(C)(=O)=O)CC[C@@]43C)[C@@H]2CC[C@@]2(C1)O[C@@H]1C[C@H](C)CN[C@H]1[C@H]2C (some centres undefined)

>  <parameter>
TGI

>  <measured result>
21.1 µM

$$$$

Each compound below has a reported value. Please supply its TGI.
1. NNC(=O)c1ccccc1NC(=O)/C(=C/c1ccccc1O)NC(=O)c1ccccc1
2. CCN=C(NNc1ccc([N+](=O)[O-])cc1)P(=O)(OC(C)C)OC(C)C
3. Cc1cc(S(N)(=O)=O)c(S/C(CC(C)C)=N\Nc2ccc([N+](=O)[O-])cc2)cc1Cl
4. Cn1nc2ccc3nccc(N4CCN(CCO)CC4)c3c2n1
5. Nc1nc(N)c(NC(=O)CCCO)c(=O)[nH]1
6. O=C1NC(=O)C2C(=O)NC(=O)C1C2(c1ccccc1)c1cc[nH]c1 (centres undefined)
7. N=C(c1ccc2ccccc2c1)c1ccccc1Cc1ccccc1

> 100 µM
> 100 µM
7.77 µM
> 100 µM
> 100 µM
> 100 µM
98.9 µM

----------
test system: HCC-2998 colon; assay: NCI tumour cell line growth inhibition, 48 h
parameter: TGI (µM)
One number for each entry, in µM.

>  <molecule>
Cn1c(/C=C(\C#N)c2ccccc2)nc2c(N3CCOCC3)nc(Cl)nc21

>  <TGI [µM]>
3.33

$$$$
>  <molecule>
CC(=O)OC(C)C1C2=C(C(=O)CC1(C)O)C(=O)c1c(ccc(-c3ccc4c(c3O)C(=O)C3=C(C4=O)C(C(C)OC(C)=O)C(C)(O)CC3=O)c1O)C2=O (configuration not stated)

>  <TGI [µM]>
25.9

$$$$
>  <molecule>
COc1cc2c3c(n(CCCN)c(=O)c2cc1OC)-c1cc2c(cc1/C3=C\CCN)OCO2

>  <TGI [µM]>
1.77

$$$$
>  <molecule>
O=C1c2cc3c(cc2-c2c1c1ccc(Cl)cc1c(=O)n2CCCNCCO)OCO3

>  <TGI [µM]>
2.46

$$$$
>  <molecule>
O=C1/C(=C/c2ccccc2)CN(C(=O)c2cccnc2)C/C1=C\c1ccccc1

>  <TGI [µM]>
2.27

$$$$

Each molecule below has a reported value. Please supply its TGI.
1. Cc1cc(S(N)(=O)=O)c(S/C(CC(C)C)=N\Nc2ccc([N+](=O)[O-])cc2)cc1Cl
2. Cc1c(-c2c(-c3ccc(F)o3)sc3ncnc(O[C@H](Cc4ccccc4OCc4ccnn4CC(F)(F)F)C(=O)O)c23)ccc(OCCN2CCN(C)CC2)c1Cl
3. O=C(COc1ccc(OCC(=O)N2C(=O)CSC2=Nc2ccccc2)cc1)N1C(=O)CSC1=Nc1ccccc1
4. CSc1nc(Cl)c(Br)c(Sc2nc(N)nc3nc[nH]c23)n1
5. COC(=O)C1(c2cc3ccccc3n2S(=O)(=O)c2ccccc2)CC2C=CC1NC2 (configuration not stated)

6.27
7.57
44.2
15.2
3.8

Each molecule below has a reported value. Please supply its TGI.
1. CCN1CCN(c2ccc(Nc3ccnc4ccc5c(nnn5C)c34)cc2)CC1
2. O=C1CC(O)c2c(Br)sc(Br)c21 (configuration not stated)
3. CC(C)c1cc(CN(C)C)c(O)c(C(C)(C)C)c1
4. O=C(c1ccco1)c1nc2cc(Cl)ccc2[n+]([O-])c1C(F)(F)F
5. COC(=O)C(=O)OC1(C(C)=O)CC2(c3ccccc3)OC1(c1ccccc1)c1ccccc12 (configuration not stated)
6. CC(=O)OC[C@]1(O)CC[C@@]23CC1C[C@@H]2CCC1C(C)(C)CCC[C@@]13C (some centres not stated)

[6.94, 18, 29.6, 34.9, 31.4, 33]

Form field: reported TGI of C=CC(c1ccccc1)[C@@]1(OC(C)=O)C(=O)C(=O)OC1C1COC(C)(C)O1 (some centres not stated)
32.8

Sourced from PubChem BioAssay (NCI)
